- Tested on: primary human hepatic stellate cells (donor 1)
- experimental.protocol: scaled lipid accumulation score (0 = DMSO-like, 1 = nortriptyline-like); higher = stronger HSC inactivation (lipid re-accumulation), active = hit call of the paper
- cond: library stock concentration: 10 mM; 48 h
Hit rate of the full screen: of about 5,800 compounds, about 620 (11%) showed activity.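 Rule for the calls: active = score above a cut-off or among the top three wells of a plate; in these data no inactive exceeds 0.85.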 This excerpt belongs to a sample that is enriched for actives.
Answer with one of the outcomes true (1) = active, false (0) = inactive

Exam item: Could you check what this test reported for CC(C)(O)C1CCC(C)(C2C(O)CC3(C)C4CC(OC5OC(CO)C(O)C(O)C5O)C5C(C)(C)C(OC6OCC(O)C(O)C6O)CCC56CC46CCC23C)O1 (configuration not stated) [Astragaloside A] ?
Marked response: false (0)

Exam item: Now consider Nc1nc(NCC2CCC(CNS(=O)(=O)c3cccc4ccccc34)CC2)nc2ccccc12 (configuration not stated) .
Marked response: false (0)

Exam item: Now consider COc1cc(/C=C/C(=O)O)ccc1O .
Marked response: false (0)

Exam item: Now consider Cc1nc2ccc(-n3ncc(C(=O)c4cc5ccccc5[nH]4)c3N)cc2[nH]1 .
Marked response: true (1)

Exam item: Now consider Nc1ncnc2nc(-c3ccc(N4CCOCC4)nc3)cc(-c3cccc(Br)c3)c12 .
Marked response: true (1)
